Entry source: paper PMC9775471

Reported values of IC50 for individual entries
# Tested on: Colo205 (colon adenocarcinoma) cells
# procedure_text: MTS cytotoxicity assay, Colo205
# Type: cell-based
# measurement_context: Homo sapiens, COLO 205, concentrations 1, 10, 50, 100, 300 µM, mean ± SD
measurement_kind: IC50

compound=COc1cc(NC(=O)c2ccc(-c3ccc(F)cc3)s2)c(OC)cc1Cl measured_result="74.8 µM"
compound=COc1cc(NC(=O)c2ccc(-c3ccc(F)cc3)s2)cc(OC)c1OC measured_result="35.1 µM"
compound=COc1cc(NC(=O)c2ccc(-c3ccc(F)cc3)s2)cc(OC)c1 measured_result="> 300 µM"
compound=CC(C)(C)c1ccc(NC(=O)c2ccc(-c3ccc(F)cc3)s2)cc1 measured_result="> 300 µM"
compound=O=C(Nc1ccccc1)c1ccc(-c2ccc(F)cc2)s1 measured_result="> 300 µM"
compound="COc1cccc2c1C(=O)c1c(O)c3c(c(O)c1C2=O)C[C@@](O)(C(=O)CO)C[C@@H]3O[C@H]1C[C@H](N)[C@H](O)[C@H](C)O1 [DOX, Doxorubicin, reference compound]" measured_result="< 1 µM"
